# System under test: TrkA (Homo sapiens (Human), UniProt P04629)
# Sequence (P04629 33-796): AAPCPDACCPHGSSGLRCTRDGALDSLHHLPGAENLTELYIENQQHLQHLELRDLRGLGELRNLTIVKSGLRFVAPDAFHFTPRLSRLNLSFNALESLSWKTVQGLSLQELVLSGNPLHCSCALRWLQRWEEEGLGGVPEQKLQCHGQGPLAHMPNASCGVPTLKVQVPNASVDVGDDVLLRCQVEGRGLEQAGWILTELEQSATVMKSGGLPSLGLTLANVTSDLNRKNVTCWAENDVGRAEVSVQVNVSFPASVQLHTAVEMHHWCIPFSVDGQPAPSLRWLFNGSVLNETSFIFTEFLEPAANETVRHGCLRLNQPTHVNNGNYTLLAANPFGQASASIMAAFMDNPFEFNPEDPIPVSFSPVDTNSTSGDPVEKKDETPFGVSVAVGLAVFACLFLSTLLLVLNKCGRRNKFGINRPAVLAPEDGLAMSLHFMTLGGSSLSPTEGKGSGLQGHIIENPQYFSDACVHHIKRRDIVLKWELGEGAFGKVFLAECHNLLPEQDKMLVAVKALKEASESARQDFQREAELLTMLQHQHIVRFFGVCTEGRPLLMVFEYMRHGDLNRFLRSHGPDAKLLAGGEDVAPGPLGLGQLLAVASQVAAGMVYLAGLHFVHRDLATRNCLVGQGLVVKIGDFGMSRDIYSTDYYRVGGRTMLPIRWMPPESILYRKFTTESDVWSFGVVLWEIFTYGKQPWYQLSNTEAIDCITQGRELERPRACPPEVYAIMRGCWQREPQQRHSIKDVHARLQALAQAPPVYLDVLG
pIC50: −log10 of the molar value. Structures can show the parent of a compound that is named as a salt.
Metric: pIC50

Compound: Cc1nn(-c2ccccc2)c(NC(=O)N[C@@H]2CN(CC(F)(F)F)C[C@H]2c2ccccc2)c1C (relative stereo)
pIC50: > 7.00
--
Compound: COCCN1C[C@@H](NC(=O)Nc2c(C)c(CC(C)(C)O)nn2-c2ccccc2)[C@H](c2ccc(F)c(F)c2)C1
pIC50: > 7.00
--
Compound: COCCN1C[C@@H](NC(=O)Nc2c(C)c([C@H]3CCCN3C(C)=O)nn2-c2ccccc2)[C@H](c2ccc(F)c(F)c2)C1
pIC50: > 7.00
--
Compound: COCCN1C[C@@H](NC(=O)Nc2c3c(nn2-c2ccccc2)C(=O)N(C)C3)[C@H](c2ccc(F)c(F)c2)C1
pIC50: 6.00 to 7.00
--
Compound: COCCN1C[C@@H](NC(=O)Nc2c(C)c(OCCN3CCN(C(=O)OC(C)(C)C)CC3)nn2-c2ccccc2)[C@H](c2ccc(F)c(F)c2)C1
pIC50: > 7.00
--
Compound: COCCN1C[C@@H](NC(=O)Nc2cc(-c3ccc(SC)cc3)nn2C)[C@H](c2ccc(F)c(F)c2)C1
pIC50: > 7.00

Field: pIC50. Fill in for each record below.
1. COCCN1C[C@@H](NC(=O)Nc2c(C)c(-c3cnn(C)c3)nn2-c2cccc(F)c2)[C@H](c2ccc(F)c(F)c2)C1
2. COCCN1C[C@@H](NC(=O)Nc2c3c(nn2-c2ccccc2)CS(=O)(=O)C3)[C@H](c2cc(F)cc(F)c2)C1
3. COCCN1C[C@@H](NC(=O)Nc2cc(-c3cccc(OC)c3)nn2C)[C@H](c2ccc(F)c(F)c2)C1
4. COCCN1C[C@@H](NC(=O)Nc2c3c(nn2-c2ccccc2)CCC3)[C@H](c2nccs2)C1 (stereo in doubt)
5. Cc1c(OCC(C)(C)O)nn(-c2ccccc2)c1NC(=O)N[C@@H]1CN(c2cn[nH]c2)C[C@H]1c1ccc(F)c(F)c1
6. COCCN1C[C@@H](NC(=O)Nc2c(C#N)c(CC#N)nn2-c2ccccc2)[C@H](c2ccc(F)c(F)c2)C1
7. COCCN1C[C@@H](NC(=O)Nc2c(Cl)c([C@H]3CCCN3)nn2-c2ccccc2)[C@H](c2ccc(F)c(F)c2)C1 [Example 585, dihydrochloride]

RESULT:
> 7.00
> 7.00
> 7.00
5.00 to 6.00
> 7.00
> 7.00
> 7.00

Dear colleague, could you please provide pIC50 for the compounds listed below?
1. COCCN1C[C@@H](NC(=O)Nc2c(Cl)c(CCO)nn2-c2ccccc2)[C@H](c2ccc(F)c(F)c2)C1
2. COCCN1C[C@@H](NC(=O)Nc2c(Cl)c(C(C)(C)C#N)nn2-c2ccccc2)[C@H](c2ccc(F)c(F)c2)C1

RESULT:
["> 7.00", "> 7.00"]

Please state, for each entry, its recorded pIC50.
1. CCOc1nn(-c2ccccc2)c(NC(=O)N[C@@H]2CN([C@@H](COC)C(F)(F)F)C[C@H]2c2ccc(F)c(F)c2)c1C
2. COCCN1C[C@@H](NC(=O)Nc2c(C)c(-c3ccn(C)n3)nn2-c2ccccc2)[C@H](c2ccc(F)c(F)c2)C1
3. COCCN1C[C@@H](NC(=O)Nc2c(C)c(C)nn2-c2ccccc2)[C@H](c2cc(F)cc(F)c2)C1
4. COCC(CO)N1C[C@@H](NC(=O)Nc2c3c(nn2-c2ccccc2)CCC3)[C@H](c2ccc(F)c(F)c2)C1 (some centres unmarked)
5. COCCN1C[C@@H](NC(=O)Nc2c(C)c(-c3cnn(C)c3)nn2-c2ccccc2)[C@H](c2cc(F)cc(F)c2)C1
6. COCCN1C[C@@H](NC(=O)Nc2c(Cl)c(CC(C)(C)O)nn2-c2ccccc2)[C@H](c2ccc(F)c(F)c2)C1

RESULT:
1: > 7.00; 2: > 7.00; 3: > 7.00; 4: > 7.00; 5: > 7.00; 6: > 7.00
